Tested on: pigweed
Assay: Test B pre/postemergence pigweed
Type: in vivo, Amaranthus retroflexus
Conditions: Rate 250 g/ha; Postemergence
Experimental: […] At the same time, these crop and weed species were also treated with postemergence applications of test chemicals formulated in the same manner. […] Treated plants and controls were maintained in a greenhouse for twelve to sixteen days, after which all species were compared to controls and visually evaluated. […]
Measured Plant response rating (0 to 10; 0 is no effect, 10 is complete control), Redroot pigweed by item
test_readout: Plant response rating (0 to 10; 0 is no effect, 10 is complete control), Redroot pigweed

[
  {
    "compound": "Cc1nc(C)c(Cn2c(=O)on(C(=O)N(c3ccc(F)cc3)C(C)C)c2=O)s1 [Compound 232]",
    "recorded_result": 6
  },
  {
    "compound": "Cc1nc(C)c(Cn2c(=O)on(C(=O)N(c3ccc(F)cc3)C(C)C)c2=O)s1 [Compound 192]",
    "recorded_result": 3
  },
  {
    "compound": "Cc1ccccc1-n1c(=O)on(C(=O)N(c2ccc(Cl)cc2Cl)C(C)C)c1=O",
    "recorded_result": 3
  },
  {
    "compound": "CC(C)N(C(=O)n1oc(=O)n(Cc2ccco2)c1=O)c1ccc(F)cc1F",
    "recorded_result": 0
  },
  {
    "compound": "CC(=O)Cn1c(=O)on(C(=O)N(c2ccc(F)cc2)C(C)C)c1=O",
    "recorded_result": 0
  },
  {
    "compound": "CCN(CC)C(=O)Cn1c(=O)on(C(=O)N(c2ccc(F)cc2)C(C)C)c1=O",
    "recorded_result": 0
  }
]

###

System: morningglory
Experiment: Test B pre/postemergence morningglory
Type: in vivo, Ipomoea hederacea
Conditions: Rate 500 g/ha, Preemergence; scale 0 to 10 (0 no effect, 10 complete control)
Procedure: […] At the same time, these crop and weed species were also treated with postemergence applications of test chemicals formulated in the same manner. […] Treated plants and controls were maintained in a greenhouse for twelve to sixteen days, after which all species were compared to controls and visually evaluated. […]
test_readout: Morningglory plant response rating

[
  {
    "compound": "COC(CCl)n1c(=O)on(C(=O)N(c2ccc(Cl)cc2)C(C)C)c1=O (centres unmarked) [Compound 725]",
    "recorded_result": 3
  },
  {
    "compound": "COC(=O)C(c1ccccc1)n1c(=O)on(C(=O)N(c2ccccc2)C(C)C)c1=O (centres unmarked) [Compound 723]",
    "recorded_result": 0
  },
  {
    "compound": "Cc1nc(C(C)n2c(=O)on(C(=O)N(c3ccc(F)cc3)C(C)C)c2=O)sc1C (centres unmarked) [Compound 757]",
    "recorded_result": 0
  },
  {
    "compound": "CC(C)N(C(=O)n1oc(=O)n(C(C)C2CCC2)c1=O)c1ccc(F)cc1 (centres unmarked) [Compound 718]",
    "recorded_result": 0
  },
  {
    "compound": "CC(C)N(C(=O)n1oc(=O)n(CCCCl)c1=O)c1ccc(Cl)cc1 [Compound 749]",
    "recorded_result": 0
  }
]

###

tested on: corn; test: Test B pre/postemergence corn; format: in vivo, Zea mays; details: Preemergence, Rate 250 g/ha; scale of 0 to 10 where 0 is no effect and 10 is complete control
The entries below are paired with their reported Corn plant response rating.

[
  {
    "compound": "CC(C)N(C(=O)n1oc(=O)n(N(C)C)c1=O)c1ccccc1",
    "test_target": "corn",
    "Corn plant response rating": 4
  },
  {
    "compound": "C=CCn1c(=O)on(C(=O)N(CC)C2CCCCC2)c1=O",
    "test_target": "corn",
    "Corn plant response rating": 0
  },
  {
    "compound": "CCC(CC)n1c(=O)on(C(=O)N(c2ccccc2)C(C)C)c1=O",
    "test_target": "corn",
    "Corn plant response rating": 3
  },
  {
    "compound": "Cc1ccccc1-n1c(=O)on(C(=O)N(c2ccc(OC(F)(F)F)cc2)C(C)C)c1=O",
    "test_target": "corn",
    "Corn plant response rating": 0
  },
  {
    "compound": "Cc1ccc(N(C(=O)n2oc(=O)n(-c3ccc4ccccc4c3)c2=O)C(C)C)cc1",
    "test_target": "corn",
    "Corn plant response rating": 0
  },
  {
    "compound": "Cc1c(-n2c(=O)on(C(=O)N(c3ccccc3)C(C)C)c2=O)ccc2ccccc12",
    "test_target": "corn",
    "Corn plant response rating": 0
  },
  {
    "compound": "C#CCn1c(=O)on(C(=O)N(c2ccc(F)cc2)C(C)C)c1=O",
    "test_target": "corn",
    "Corn plant response rating": 0
  },
  {
    "compound": "CC(C)N(C(=O)n1oc(=O)n(CCl)c1=O)c1ccc(F)cc1",
    "test_target": "corn",
    "Corn plant response rating": 0
  },
  {
    "compound": "Cc1nnsc1Cn1c(=O)on(C(=O)N(c2ccc(F)cc2)C(C)C)c1=O",
    "test_target": "corn",
    "Corn plant response rating": 0
  },
  {
    "compound": "CC(C)C(C)n1c(=O)on(C(=O)N(c2ccccc2)C(C)C)c1=O (stereo not shown)",
    "test_target": "corn",
    "Corn plant response rating": 3
  },
  {
    "compound": "CC(C)N(C(=O)n1oc(=O)n(-c2ccc3ccccc3c2)c1=O)c1ccc(Cl)cc1",
    "test_target": "corn",
    "Corn plant response rating": 0
  },
  {
    "compound": "CCCCCCn1c(=O)on(C(=O)N(c2ccc(F)cc2)C(C)C)c1=O",
    "test_target": "corn",
    "Corn plant response rating": 0
  },
  {
    "compound": "Cc1nc(C)c(Cn2c(=O)on(C(=O)N(c3ccc(F)cc3)C(C)C)c2=O)s1",
    "test_target": "corn",
    "Corn plant response rating": 0
  }
]

###

test system: sandbur; assay: Test D sandbur; assay type: in vivo, Cenchrus echinatus; details: Rate 125 g/ha, Preemergence; 0 to 100 scale, 0 no injury, 100 complete control
// values below are reported Sandbur plant response rating

[
  {
    "given_smiles": "C=CCn1c(=O)on(C(=O)N(c2ccc(Cl)cc2)C(C)C)c1=O",
    "test_target": "sandbur",
    "Sandbur plant response rating": 0
  },
  {
    "given_smiles": "CC(C)N(C(=O)n1oc(=O)n(C(C)C)c1=O)c1ccc(Cl)cc1",
    "test_target": "sandbur",
    "Sandbur plant response rating": 85
  },
  {
    "given_smiles": "Cc1cccc(C)c1-n1c(=O)on(C(=O)N(c2ccc(F)cc2)C(C)C)c1=O",
    "test_target": "sandbur",
    "Sandbur plant response rating": 0
  },
  {
    "given_smiles": "CCn1c(=O)on(C(=O)N(c2ccccc2)C(C)C)c1=O",
    "test_target": "sandbur",
    "Sandbur plant response rating": 0
  }
]

###

system: velvetleaf; test: Test B pre/postemergence velvetleaf; assay type: in vivo, Abutilon theophrasti; settings: Rate 250 g/ha, Postemergence; scale 0 to 10, 0 is no effect, 10 is complete control

[
  {
    "compound": "CC(C)N(C(=O)n1oc(=O)n(C[C@H](C)Cl)c1=O)c1ccccc1 [Compound 747]",
    "test_target": "velvetleaf",
    "Velvetleaf plant response rating": 4
  },
  {
    "compound": "C#CCn1c(=O)on(C(=O)N(c2ccccc2)C(C)C)c1=O [Compound 754]",
    "test_target": "velvetleaf",
    "Velvetleaf plant response rating": 0
  },
  {
    "compound": "CC(C)N(C(=O)n1oc(=O)n(CCCCCl)c1=O)c1ccccc1 [Compound 792]",
    "test_target": "velvetleaf",
    "Velvetleaf plant response rating": 6
  },
  {
    "compound": "CC(C)N(C(=O)n1oc(=O)n(C[C@H](C)Cl)c1=O)c1ccc(Cl)cc1 [Compound 748]",
    "test_target": "velvetleaf",
    "Velvetleaf plant response rating": 0
  }
]

###

Tested on: wild oat
Experiment: Test B pre/postemergence wild oat
Format: in vivo, Avena fatua
Settings: Preemergence, Rate 125 g/ha; scale of 0 to 10 where 0 is no effect and 10 is complete control
Description: […] At the same time, these crop and weed species were also treated with postemergence applications of test chemicals formulated in the same manner. […] Treated plants and controls were maintained in a greenhouse for twelve to sixteen days, after which all species were compared to controls and visually evaluated. […]

[
  {
    "compound": "C#CCn1c(=O)on(C(=O)N(c2ccccc2)C(C)C)c1=O",
    "Plant response rating, Wild oats": 6
  },
  {
    "compound": "COC(CCl)n1c(=O)on(C(=O)N(c2ccc(Cl)cc2)C(C)C)c1=O (stereo not drawn)",
    "Plant response rating, Wild oats": 2
  },
  {
    "compound": "CC(C)N(C(=O)n1oc(=O)n(CC2=NOCC2)c1=O)c1ccc(F)cc1",
    "Plant response rating, Wild oats": 0
  },
  {
    "compound": "CC(=O)NCCn1c(=O)on(C(=O)N(c2ccc(F)cc2)C(C)C)c1=O",
    "Plant response rating, Wild oats": 3
  },
  {
    "compound": "CC(C)N(C(=O)n1oc(=O)n(C(C)Cl)c1=O)c1ccccc1 (stereo not drawn)",
    "Plant response rating, Wild oats": 0
  },
  {
    "compound": "CC(C)N(C(=O)n1oc(=O)n(C(C)C=O)c1=O)c1ccccc1 (stereo not drawn)",
    "Plant response rating, Wild oats": 0
  },
  {
    "compound": "CC(=O)OCC(CCl)n1c(=O)on(C(=O)N(c2ccc(F)cc2F)C(C)C)c1=O (racemic)",
    "Plant response rating, Wild oats": 0
  },
  {
    "compound": "COCC(OC)n1c(=O)on(C(=O)N(c2ccccc2)C(C)C)c1=O (stereo not drawn)",
    "Plant response rating, Wild oats": 8
  },
  {
    "compound": "CC(C)N(C(=O)n1oc(=O)n(C(C)C(=S)N(C)C)c1=O)c1ccccc1 (stereo not drawn)",
    "Plant response rating, Wild oats": 0
  },
  {
    "compound": "CC(C)N(C(=O)n1oc(=O)n(CO)c1=O)c1ccc(F)cc1",
    "Plant response rating, Wild oats": 0
  },
  {
    "compound": "CC(C)N(C(=O)n1oc(=O)n(CCCCl)c1=O)c1ccc(Cl)cc1",
    "Plant response rating, Wild oats": 0
  },
  {
    "compound": "CC(C)N(C(=O)n1oc(=O)n(C[C@H](C)Cl)c1=O)c1ccc(Cl)cc1",
    "Plant response rating, Wild oats": 2
  }
]
